# Target or test system: T1, mouse CD47 (mCD47) expressed on CHO cells (mouse, UniProt Q61735 19-303)
# T1 construct: whole, on cells; also called CHO-mCD47
# T1 sequence (looked up): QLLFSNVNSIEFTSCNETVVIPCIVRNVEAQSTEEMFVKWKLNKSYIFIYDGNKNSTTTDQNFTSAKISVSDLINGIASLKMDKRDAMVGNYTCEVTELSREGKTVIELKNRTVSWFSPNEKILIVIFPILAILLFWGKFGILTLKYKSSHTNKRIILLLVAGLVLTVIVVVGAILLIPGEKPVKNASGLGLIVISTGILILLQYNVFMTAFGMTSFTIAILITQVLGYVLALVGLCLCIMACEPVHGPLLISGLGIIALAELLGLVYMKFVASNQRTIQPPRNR
# Test name: flow cytometry, CHO-mCD47 cells (not shown)
Attribute measured: binding result

The examples below pair each entry with its known result.
h20-VH4-VL5 (candidate 20.20) (antibody, human IgG4 S228P, kappa, V domains shown, hIgG4-S228P/kappa; also called h20-H4-L5) VH: QVQLVQSGAEVKKPGSSVKVSCKASGYSFTDYYINWVRQAPGQGLEWMGRIYPGIGNTYYNKKFKGRVTITADKSTSTAYMELSSLRSEDTAVYYCARGHYGRGMDYWGQGTTVTVSS VL: DIVMTQSPDSLAVSLGERATINCKSSQSLLNSIDQKNYLAWYQQKPGQPPKLLIYFASTKESGVPDRFSGSGSGTDFTLTISGLQAEDVAVYFCQQHYSTPWTFGGGTKVEIRR : no binding
h20-VH5-VL4 (candidate 20.24) (antibody, human IgG4 S228P, kappa, V domains shown, hIgG4-S228P/kappa; also called h20-H5-L4) VH: QVQLVQSGAEVKKPGASVKVSCKASGYSFTDYYINWVRQAPGQGLEWMGRIYPGIGNTYYNKKFKGRVTMTRYTSISTAYMELSRLRSDDTAVYFCARGHYGRGMDYWGQGTTVTVSS VL: DIVMTQSPDSLAVSLGERATINCKSSQSLLNSIDQKNYLAWYQQKPGQPPKLLIYFASTKESGVPDRFSGSGSGTDFTLTISSLQAEDVAVYFCQQHYSTPWTFGGGAKVEIKR : no binding
h20-VH1-VL3 (candidate 20.3) (antibody, human IgG4 S228P, kappa, V domains shown, hIgG4-S228P/kappa; also called h20-H1-L3) VH: QVQLLESGAVLARPGTSVKISCKASGYSFTDYYINWVKQRPGQGLEWIGRIYPGIGNTYYNKKFKGRAKLTAATSASIAYLEFSSLTNEDSAVYYCARGHYGRGMDYWGQGTLVTVSS VL: EIVLTQSPDSLAVSLGERATINCKSSQSLLNSIDQKNYLAWYQQKAGQSPKLLIYFASTKESGVPDRFSGSGSGTDFTLTIDSLQAEDVAVYYCQQHYSTPWTFGGGTKVEIKR : no binding
h20-VH4-VL3 (candidate 20.18) (antibody, human IgG4 S228P, kappa, V domains shown, hIgG4-S228P/kappa; also called h20-H4-L3) VH: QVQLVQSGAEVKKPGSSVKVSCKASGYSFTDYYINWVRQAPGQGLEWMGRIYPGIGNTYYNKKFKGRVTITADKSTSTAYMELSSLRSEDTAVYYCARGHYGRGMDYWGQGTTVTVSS VL: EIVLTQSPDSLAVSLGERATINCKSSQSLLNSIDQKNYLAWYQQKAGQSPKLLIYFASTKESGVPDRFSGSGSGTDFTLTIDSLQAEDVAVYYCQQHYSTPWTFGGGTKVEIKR : no binding
h20-VH3-VL3 (candidate 20.13) (antibody, human IgG4 S228P, kappa, V domains shown, hIgG4-S228P/kappa; also called h20-H3-L3) VH: QVQLVQSGAEVKKPGASVKVSCKASGYSFTDYYINWVRQAPGQGLEWMGRIYPGIGNTYYNKKFKGRVTVTRDTSISTAHMELSSLRSDDTAVYYCARGHYGRGMDYWGQGTAVTVSS VL: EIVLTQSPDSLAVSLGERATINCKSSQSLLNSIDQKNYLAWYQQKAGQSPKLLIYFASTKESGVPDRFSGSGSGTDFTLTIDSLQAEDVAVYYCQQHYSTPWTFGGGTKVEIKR : no binding

--- query ---
Item: h20-VH3-VL5 (candidate 20.15) (antibody, human IgG4 S228P, kappa, V domains shown, hIgG4-S228P/kappa; also called h20-H3-L5) VH: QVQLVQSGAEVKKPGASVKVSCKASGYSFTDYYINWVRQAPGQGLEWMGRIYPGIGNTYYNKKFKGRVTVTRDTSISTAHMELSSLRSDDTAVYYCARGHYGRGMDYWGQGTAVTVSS VL: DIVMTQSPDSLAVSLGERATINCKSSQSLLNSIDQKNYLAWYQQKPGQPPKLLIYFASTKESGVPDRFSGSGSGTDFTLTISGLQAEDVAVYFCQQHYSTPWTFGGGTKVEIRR | binding result: no binding
